Target: rat NaP2b (SLC34A2) (Rattus norvegicus)
Construct: host or cells: HEK293
Sequence (Q9JJ09 whole entry): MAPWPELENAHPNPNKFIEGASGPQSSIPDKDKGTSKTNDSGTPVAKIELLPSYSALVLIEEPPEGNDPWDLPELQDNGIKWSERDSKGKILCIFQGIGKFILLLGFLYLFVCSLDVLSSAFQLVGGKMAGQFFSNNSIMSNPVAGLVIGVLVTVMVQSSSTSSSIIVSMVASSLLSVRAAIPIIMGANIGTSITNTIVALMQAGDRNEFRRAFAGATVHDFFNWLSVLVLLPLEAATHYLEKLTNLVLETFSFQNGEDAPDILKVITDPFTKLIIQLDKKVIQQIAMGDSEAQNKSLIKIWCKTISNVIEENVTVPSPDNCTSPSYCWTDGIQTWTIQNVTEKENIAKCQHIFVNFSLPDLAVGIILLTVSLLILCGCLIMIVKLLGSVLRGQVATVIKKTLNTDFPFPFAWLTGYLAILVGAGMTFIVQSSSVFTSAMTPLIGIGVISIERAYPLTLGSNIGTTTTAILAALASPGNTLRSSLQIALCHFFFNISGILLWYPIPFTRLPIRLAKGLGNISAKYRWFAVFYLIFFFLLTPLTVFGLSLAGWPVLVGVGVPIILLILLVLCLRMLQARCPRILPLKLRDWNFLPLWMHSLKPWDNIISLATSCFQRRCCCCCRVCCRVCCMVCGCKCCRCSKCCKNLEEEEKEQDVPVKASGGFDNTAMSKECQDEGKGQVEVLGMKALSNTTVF
Assay: Inhibition of NaP2b-mediated Pi (33P) uptake in transfected HEK293 cells, rat NaP2b
Type: cell-based
Details: 33P Pi uptake, 0.1 mM phosphate, value given as pIC50 range
pIC50: −log10 of the molar value.
Let's look at some compounds and their measured pIC50.

{"structureAsSmiles": "CCN(CC)c1ccc(NC(=O)c2cccc(CCCOCCOCCOCCOCCNC(=O)c3cc[nH]n3)c2)c(-c2cc(C(=O)N[C@H]3CCCc4ccccc43)ccn2)c1", "testedSystem": "rat NaP2b (SLC34A2) (Rattus norvegicus)", "pIC50": "> 6.00"}
{"structureAsSmiles": "Cc1ccc(Cl)cc1CNC(=O)c1ccnc(-c2cc(N3CCCCC3)ccc2NC(=O)c2cccc(CSCCC(=O)O)c2)c1", "testedSystem": "rat NaP2b (SLC34A2) (Rattus norvegicus)", "pIC50": "5.10 to 6.00"}
{"structureAsSmiles": "CN(CCN1CCOCC1)C(=O)c1cccc(C(=O)Nc2ccc(N3CCCCC3)cc2-c2cc(OCc3cccc(C(F)(F)F)c3)ccn2)c1", "testedSystem": "rat NaP2b (SLC34A2) (Rattus norvegicus)", "pIC50": "4.50 to 5.00"}
